system: KM12; test: NCI tumour cell line growth inhibition, 48 h
The source made the active and inactive calls. Cut-off read from the data, not from the text of the source: active = GI50 up to about 1.1 µM and inactive = higher.
Classes used: YES = active, NO = inactive

- COMPOUND: "CC1(C)[C@@H]2C[C@H]1C(Cc1ccc(C[C@H]3c4cc(-c5ccccn5)ncc4[C@H]4C[C@@H]3C4(C)C)cc1)c1cc(-c3ccccn3)ncc12 (stereo not given in full)"
  GROUP_LABEL: "NO"
- COMPOUND: "O=C(CN1CCCCC1)c1ccc2[nH]c(=O)oc2c1"
  GROUP_LABEL: "NO"
- COMPOUND: "C=C(C)[C@@H](O)[C@H](O)C[C@H](C)C1CC[C@]2(C)C1=CC[C@@H]1[C@@]3(C)CC[C@@H](OC(C)=O)C(C)(C)[C@@H]3C[C@@H](OC3OC(COC(C)=O)C(O)C(O)C3O)[C@]12C (stereo not given in full)"
  GROUP_LABEL: "NO"
- COMPOUND: "CNC(=O)NCCN1CC2CCC(CC2)C1"
  GROUP_LABEL: "NO"
- COMPOUND: "CN(C)CCNC(=O)c1cccc2nc3ccc4cccnc4c3nc12"
  GROUP_LABEL: "YES"
